// provenance: PubChem BioAssay (NCI)

# System: OVCAR-3 ovarian
# TEST_SUMMARY: NCI tumour cell line growth inhibition, 48 h
Record form. Attribute: TGI. Fill in for each entry.

Sample answers from the record:
Cc1cccc(N(C(=O)Nc2ccc(Cl)c(Cl)c2)C2=NCC(C)S2)c1 (stereo unspecified)
> 100 µM
NC(=O)c1c(NC(=O)c2ccccn2)sc2c1CCC(=O)C2
45.7 µM
Cc1ccc(N2C(=O)CS/C2=C(\C#N)c2nc3ccccc3[nH]2)cc1
> 100 µM
CC(C)(C)OC(=O)N1CCC(C(=O)O)CC1
> 100 µM
Nc1ccccc1S(=O)(=O)c1ccccc1
> 100 µM

Now look at this entry.
Q: Returns the measured TGI for the input molecule. Input: O=C(O)C1OC1(c1cccc(Cl)c1)c1ccccc1Cl (stereo unspecified)
Ans: 46.1 µM

* * *

# System: MDA-MB-435
# TEST_SUMMARY: NCI tumour cell line growth inhibition, 48 h
PROPERTY_NAME: TGI (µM)
Answers are plain numbers, in µM.

COc1cc2oc3cc(=O)cc4oc(-c5ccccc5)cc(c2c2c1CCC(c1ccccc1)O2)c43 (configuration not stated)
56
COc1ccc2c(c1)[nH]c1c(/C=C/c3ccccc3)nccc12
49
Cc1cc(O)c(C2=NN(c3ccc(S(N)(=O)=O)cc3)C(c3ccccc3Cl)C2)cc1Cl (configuration not stated)
3.92
COc1cccc2c1Cc1cc(-c3ccccc3)[n+](C)n1-2
25.5
CCOC(=O)c1cc2c(n1Cc1cccc(OC)c1)-c1oncc1CCC2
0.456

Respectfully, I request TGI for each entry included below.
1. O=C(CCc1ccc(O)c(O)c1)NCCc1cc(O)cc(O)c1
2. CC1=CC(=O)c2ccccc2C1=O
3. CCCc1cc(=O)[nH]c(-n2nc(C)cc2C)n1
4. CC(C)(C)c1cc(C2=NNC(c3ccccc3)C2)cc(C(C)(C)C)c1O (configuration not stated)
5. CCOC(=O)c1c2c(n(Cc3ccc(Cl)cc3Cl)c1C)-c1nc[nH]c1C(=O)C2=O
6. CC(=O)C(=Cc1ccc(C=C(C(C)=O)C(C)=O)cc1)C(C)=O

Ans:
1: 66.6; 2: 3.81; 3: 32.4; 4: 26.8; 5: 30.1; 6: 5.66

* * *

Assignment: determine reported TGI for the given compounds.
# System: OVCAR-5 ovarian
# TEST_SUMMARY: NCI tumour cell line growth inhibition, 48 h

Worked examples follow.
O=c1ccn([C@@H]2C[C@@H]2CO)c(=O)[nH]1
> 100 µM
O=c1[nH]nc2ccccc2c1Cc1ccccc1
> 100 µM
Cc1ccc(SSc2ccc(C)cc2C(=O)O)c(C(=O)O)c1
> 100 µM
O=C(O)C1C2CCC(O2)C1C(=O)Nc1cccc2cccnc12 (stereo not given)
> 100 µM
COCC(O)Cn1ccnc1[N+](=O)[O-] (stereo not given)
> 100 µM
C=C1/C(=C\C=C2/CCC[C@]3(C)[C@@H]([C@H](C)CCCC(C)(C)O)CC[C@@H]23)C[C@@H](OC(=O)CBr)C[C@@H]1O
19.3 µM
CN(C)CCNC(=O)c1cc([N+](=O)[O-])cc2c1Oc1ccccc1O2
> 100 µM
C1=CC=C2NCCCCCCCNC3=CC=CC=CC3=NCCCCCCCN=C2C=C1
> 100 µM

// for each compound in input: emit TGI
1. COC(=O)[C@@]12OC[C@]34[C@H]([C@@H](O)[C@@H]1O)[C@@]1(C)[C@H](O)C(=O)C=C(C)[C@@H]1C[C@H]3OC(=O)C(OC(C)=O)[C@@H]24 (stereo not given in full)
2. CCN(CC)CCOc1ccc(CCc2cc(OC)c(OC)c(OC)c2)cc1

Ans:
0.41 µM
65.3 µM
